- Assayed system: PI3-kinase p110-alpha/p85-alpha (Homo sapiens, UniProt P42336)
- Sequence (P27986 whole entry): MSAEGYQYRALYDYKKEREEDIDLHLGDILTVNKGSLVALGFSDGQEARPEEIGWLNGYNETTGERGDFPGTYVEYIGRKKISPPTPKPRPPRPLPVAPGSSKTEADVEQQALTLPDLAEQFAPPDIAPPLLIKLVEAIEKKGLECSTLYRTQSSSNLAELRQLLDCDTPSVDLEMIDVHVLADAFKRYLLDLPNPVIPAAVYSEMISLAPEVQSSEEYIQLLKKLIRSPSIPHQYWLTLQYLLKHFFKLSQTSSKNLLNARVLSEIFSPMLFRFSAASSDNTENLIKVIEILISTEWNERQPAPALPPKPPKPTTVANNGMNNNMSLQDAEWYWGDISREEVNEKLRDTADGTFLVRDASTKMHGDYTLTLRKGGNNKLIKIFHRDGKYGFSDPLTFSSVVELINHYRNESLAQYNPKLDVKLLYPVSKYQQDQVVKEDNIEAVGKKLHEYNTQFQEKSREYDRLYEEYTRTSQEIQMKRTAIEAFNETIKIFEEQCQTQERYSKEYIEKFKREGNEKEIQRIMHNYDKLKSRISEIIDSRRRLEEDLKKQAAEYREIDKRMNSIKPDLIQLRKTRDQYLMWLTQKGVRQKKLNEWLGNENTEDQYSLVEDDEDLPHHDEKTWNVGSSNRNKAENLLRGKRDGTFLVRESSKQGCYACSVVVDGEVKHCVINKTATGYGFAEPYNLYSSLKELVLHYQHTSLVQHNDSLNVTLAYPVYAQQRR
- Sequence (P42336 whole entry): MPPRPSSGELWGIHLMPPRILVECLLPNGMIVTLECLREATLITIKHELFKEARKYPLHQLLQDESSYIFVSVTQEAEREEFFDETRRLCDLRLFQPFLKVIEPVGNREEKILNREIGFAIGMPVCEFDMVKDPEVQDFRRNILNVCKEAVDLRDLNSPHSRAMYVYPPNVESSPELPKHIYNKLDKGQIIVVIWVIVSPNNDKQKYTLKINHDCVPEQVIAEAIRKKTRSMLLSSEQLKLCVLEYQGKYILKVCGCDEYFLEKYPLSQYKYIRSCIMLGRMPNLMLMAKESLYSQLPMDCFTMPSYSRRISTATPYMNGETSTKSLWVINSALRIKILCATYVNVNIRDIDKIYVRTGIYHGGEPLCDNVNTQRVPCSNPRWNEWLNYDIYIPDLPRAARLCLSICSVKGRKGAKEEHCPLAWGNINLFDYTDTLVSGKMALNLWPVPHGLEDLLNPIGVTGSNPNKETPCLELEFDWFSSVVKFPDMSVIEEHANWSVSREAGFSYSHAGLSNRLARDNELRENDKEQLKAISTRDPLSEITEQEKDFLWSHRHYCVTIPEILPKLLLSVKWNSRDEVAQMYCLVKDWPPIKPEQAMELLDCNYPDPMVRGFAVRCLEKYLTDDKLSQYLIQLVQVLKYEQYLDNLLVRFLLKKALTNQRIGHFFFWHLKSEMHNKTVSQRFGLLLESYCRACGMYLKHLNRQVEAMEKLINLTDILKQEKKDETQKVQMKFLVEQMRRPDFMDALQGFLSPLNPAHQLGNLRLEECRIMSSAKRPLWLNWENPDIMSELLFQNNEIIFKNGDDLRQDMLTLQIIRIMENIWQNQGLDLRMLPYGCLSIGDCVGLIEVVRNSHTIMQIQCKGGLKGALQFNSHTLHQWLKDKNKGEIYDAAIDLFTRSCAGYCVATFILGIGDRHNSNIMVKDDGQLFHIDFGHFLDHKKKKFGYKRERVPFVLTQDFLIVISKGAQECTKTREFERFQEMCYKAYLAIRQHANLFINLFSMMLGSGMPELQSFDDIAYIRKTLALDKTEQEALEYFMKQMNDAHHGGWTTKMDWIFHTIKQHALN
- Assay method text: Inhibition of N-terminal His6-tagged recombinant full-length human p110alpha/untagged recombinant full length human p85alpha expressed in baculovirus infected Sf21 cells using phosphatidylinositol as substrate in presence of gamma-32P-ATP after 5 mins by thin layer chromatographic method
pIC50: −log10 of the molar value.
Experimental endpoint: pIC50

These solved cases illustrate the format of a correct answer.
1. Cc1cccc2cc(Cn3nc(-c4ccc(F)c(O)c4)c4c(N)ncnc43)n(C(C)C)c(=O)c12    < 5.00
2. Cc1cccnc1-n1c(Cn2nc(-c3ccc(F)c(O)c3)c3c(N)ncnc32)cc2cccc(C)c2c1=O    < 5.00
3. Cc1cccc2cc(Cn3nc(-c4cnn(C)c4)c4c(N)ncnc43)n(-c3ccccc3F)c(=O)c12    < 5.00
4. Cc1cccc2cc(Cn3nc(-c4ccn[nH]4)c4c(N)ncnc43)n(-c3ccccc3F)c(=O)c12    < 5.00
5. Cc1cccc2cc(Cn3nc(-c4cn[nH]c4)c4c(N)ncnc43)n(-c3cccc(F)c3)c(=O)c12    < 5.00
6. Cc1ccccc1-n1c(Cn2nc(/C=C/C(N)=O)c3c(N)ncnc32)cc2cccc(C)c2c1=O    < 5.00
7. Cc1cccc2cc(Cn3nc(-c4ccc(F)c(O)c4)c4c(N)ncnc43)n(C3CCCC3)c(=O)c12    < 5.00
8. Cc1cccc2cc(Cn3nc(-c4cn[nH]c4)c4c(N)ncnc43)n(-c3ccccc3F)c(=O)c12    < 5.00
9. CC(=O)Nc1nc2ccc(-c3nn(Cc4cc5cccc(Cl)c5c(=O)n4C(C)C)c4ncnc(N)c34)cc2s1    > 4.00
10. Cc1cccc2cc(Cn3nc(I)c4c(N)ncnc43)n(-c3ccccc3OCCN3CCOCC3)c(=O)c12    < 5.00

Entry Cc1cccc2cc(Cn3nc(-c4cc(O)cc(F)c4)c4c(N)ncnc43)n(C3CCCC3)c(=O)c12 , pIC50 reported as > 5.00

Entry Cc1cccc2cc(Cn3nc(-c4cc(O)cc(F)c4)c4c(N)ncnc43)n(-c3ccccc3Cl)c(=O)c12 , pIC50 reported as > 5.00

Entry CC(=O)Nc1nc2ccc(-c3nn(Cc4cc5cccc(Cl)c5c(=O)n4C4CC4)c4ncnc(N)c34)cc2s1 , pIC50 reported as > 4.00

###

Overview of reported pIC50 across a group of compounds:
- Assayed system: Phosphatidylinositol 4,5-bisphosphate 3-kinase catalytic subunit gamma isoform (Homo sapiens)
- Sequence (P48736 whole entry, canonical isoform): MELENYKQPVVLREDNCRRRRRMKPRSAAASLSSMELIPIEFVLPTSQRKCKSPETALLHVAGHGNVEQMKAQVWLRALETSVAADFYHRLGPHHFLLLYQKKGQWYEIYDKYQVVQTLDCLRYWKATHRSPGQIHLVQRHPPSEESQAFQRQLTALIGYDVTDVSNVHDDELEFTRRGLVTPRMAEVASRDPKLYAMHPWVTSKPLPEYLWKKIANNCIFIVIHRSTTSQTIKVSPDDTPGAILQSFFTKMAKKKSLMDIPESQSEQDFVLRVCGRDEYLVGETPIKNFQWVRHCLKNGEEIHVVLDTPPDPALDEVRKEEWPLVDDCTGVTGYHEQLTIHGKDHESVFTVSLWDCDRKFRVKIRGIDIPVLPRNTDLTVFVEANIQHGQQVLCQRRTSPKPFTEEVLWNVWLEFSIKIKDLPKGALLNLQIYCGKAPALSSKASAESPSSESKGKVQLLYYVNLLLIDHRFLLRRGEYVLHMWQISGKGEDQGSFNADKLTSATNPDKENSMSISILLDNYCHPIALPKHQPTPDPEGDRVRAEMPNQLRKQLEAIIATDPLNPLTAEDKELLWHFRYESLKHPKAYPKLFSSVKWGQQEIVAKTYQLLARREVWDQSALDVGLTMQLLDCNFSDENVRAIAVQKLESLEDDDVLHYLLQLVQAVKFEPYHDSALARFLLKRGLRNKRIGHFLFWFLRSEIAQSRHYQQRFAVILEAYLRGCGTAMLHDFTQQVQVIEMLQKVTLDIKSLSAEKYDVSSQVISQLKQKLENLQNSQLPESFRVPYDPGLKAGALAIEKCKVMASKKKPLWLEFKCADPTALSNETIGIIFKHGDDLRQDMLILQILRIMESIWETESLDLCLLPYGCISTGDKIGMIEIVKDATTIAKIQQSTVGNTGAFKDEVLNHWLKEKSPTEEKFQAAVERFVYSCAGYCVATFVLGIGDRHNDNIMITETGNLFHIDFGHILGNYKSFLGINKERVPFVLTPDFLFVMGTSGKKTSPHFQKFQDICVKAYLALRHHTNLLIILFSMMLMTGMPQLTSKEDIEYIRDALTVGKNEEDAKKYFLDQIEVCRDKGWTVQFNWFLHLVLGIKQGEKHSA
- Assay method text: Inhibition of recombinant human C-terminal His6-tagged p110gamma expressed in insect cells using phosphatidylinositol as substrate in presence of gamma-32P-ATP after 5 mins by thin layer chromatographic method
pIC50: −log10 of the molar value.

These solved cases illustrate the format of a correct answer.
1) Cc1cccc2cc([C@H](C)Nc3nc(N)ncc3C(F)(F)F)n(-c3ccccc3)c(=O)c12    > 7.00
2) Cc1ccccc1-n1c(Cn2nc(C#C[C@@H](C)O)c3c(N)ncnc32)cc2cccc(C)c2c1=O    > 5.00
3) Cc1cccc2cc(Cn3nc(-c4ccc5nc(N)[nH]c5c4)c4c(N)ncnc43)n(-c3ccccc3)c(=O)c12    > 7.00

Entry CCC(Nc1ncnc2[nH]cnc12)c1cc2cccc(C)c2c(=O)n1-c1ccc(F)cc1 (stereo not given) , pIC50 reported as > 7.00

Entry COc1cccc(-c2nn(Cc3cc4cccc(C)c4c(=O)n3-c3ccccc3C)c3ncnc(N)c23)c1 , pIC50 reported as > 6.00

Entry Cc1cccc2cc(Cn3nc(C#CCO)c4c(N)ncnc43)n(-c3ccccc3F)c(=O)c12 , pIC50 reported as > 6.00

Entry Cc1ccccc1-n1c(Cn2nc(-c3cn[nH]c3)c3c(N)ncnc32)cc2ccccc2c1=O , pIC50 reported as > 5.00

Entry Cc1cccc2cc(Cn3nc(-c4cnn(CCO)c4)c4c(N)ncnc43)n(-c3ccccc3F)c(=O)c12 , pIC50 reported as > 6.00

Entry Cc1cccc2cc([C@H](C)Nc3ncnc4[nH]nc(C(N)=O)c34)n(-c3ccccc3)c(=O)c12 , pIC50 reported as > 7.00

Entry Cc1cccc2cc([C@H](C)Nc3ncnc4[nH]cnc34)n(C3CC3)c(=O)c12 , pIC50 reported as > 7.00

Entry Cc1cccc2cc([C@H](C)Nc3ncnc4[nH]cc(C(N)=O)c34)n(C3CC3)c(=O)c12 , pIC50 reported as > 7.00

Entry Cc1cccc2cc(C(C)Nc3ncnc4[nH]cnc34)n(C3CCCC3)c(=O)c12 (stereo not given) , pIC50 reported as > 7.00
